Reference source: the supplement of paper PMC12764529

So I've got a bunch of sequences here, and I need their folding stability dG unfold values.
Experiment: folding stability dG unfold from chymotrypsin proteolysis; higher = more stable
Please respond with the number in kcal/mol and leave the unit unwritten.

Ask | Give its folding stability dG unfold value. Item: SAGGSAGGSAGTLEALKNLKPGETVTLRVELRVERRYLDPNGKEHTEEVSTVTLELTLKPSAGGSAGGSAGG [r11_36_TrROS_Hall]
Reply | 3.62

Ask | folding stability dG unfold lookup needed for SAGGSAGGRIEVDPEGATIKYEHNPNMMQIEIKYPGKKVQIMIPPDFMKQNPDMPIKDLVEWILSAGGSAGG [r6_369_TrROS] , thanks.
Reply | 0.94

Ask | folding stability dG unfold for SAGGSAGGMIKITITVPPGVSPEFVREKIAPLGVEVLSVEPLPDGTHRVTIEIPPEITKNPELLSAGGSAGG [r6_470_JUSTAS] ?
Reply | 1.18

Ask | Query (sequence): SDYMPVHKMESDGKRNPNGQHEYEPKMEPVWVPVPPPPPRIRIPPEWREKLKELAEKLGHPITDDDINKISA [r9_487_TrROS] ; field requested: folding stability dG unfold
Reply | 0.0759

Ask | Which folding stability dG unfold value is on record for SAGGNRKFTLIIRIKAPPGDPDKMKEEVKEIANEIADIFRDHGVKVKVKVEYDPDNGEIYVQVEFEVPSAGG [r13_755_TrROS] ?
Reply | 5.12

Ask | folding stability dG unfold for SAGAKVEIEFEGNKVTAKIEFGEGTVTVEGEVKLLPDGSALFKPKIYKDGKKIGEFTVLLDLPEGAEVLSAG [r5_221_TrMRF] ?
Reply | 1.95

Ask | Quick one: folding stability dG unfold for SAGGSPPFRIKIDEIEILPNGIIQVTFKIDNGWPMTILIQMDPDGKVTIEIQFPGNGQPFEFELPISAGGSA [r2_361_TrROS] ?
Reply | 3.52

Ask | Which folding stability dG unfold reading was recorded for the sequence SAGGSAGGKGGKPKIKLEPINTNPNGWQTFRFEVTPEAIDDLMDDFPNVQVERHPGEMYITVRNSAGGSAGG [r6_395_TrROS] ?
Reply | -0.0427

Ask | Look up folding stability dG unfold for this sequence: SMIIKPGMSLEEVLNKIKELLKKGEKYKITVINKETGKVYEFEIDVKTKKIKVKEVTLENGEVIIKIEKVSA [r9_1059_TrROS_Hall]
Reply | 3.54

Ask | Quick one: folding stability dG unfold for SAGGSAGGSAGGGIKIKIISVKPLPDGSVLVKAKIIFPDGKEKEILILFNKNGEIKIFEKSAGGSAGGSAGG [r7_860_TrMRF] ?
Reply | 4.03

Ask | Recorded folding stability dG unfold for SAGGKIEVEPEVELYRTPDGRLVARPKPVKVKITLKLTITNENGEKKTIEVEADTPEEALAALKALSSAGGS [r8_440_TrROS_Hall] , please?
Reply | 0.726

Ask | Which folding stability dG unfold is listed for SAGGMKPGAPVEIEFPIPGIPPGRRFRIMIHYPNGKHVEAEYTDNTIKIEIPVPDGDNIHHIYIYFYSAGGS [r16_179_TrROS] ?
Reply | 4.33

Ask | Given the sequence SAGGSAPLPPGAVVEIVEVRFDPETRRIEMVVKVYDANGELVATLRVELEFDPETNELTLRVELLPSAGGSA [r15_1028_TrROS_Hall] , what is its reported folding stability dG unfold?
Reply | 4.5

Ask | Give the measured folding stability dG unfold of SAGGKPAKPTRLDFPDDDVKTVPANTKIILTRPDGSKLVIELPEEEFTAKPDEWVFETPTSKITFPIASAGG [r13_643_TrMRF] .
Reply | 0.657

Ask | What measured folding stability dG unfold goes with SAGGMEIKVTVEKREDGYLVVTVEKAESKEEAIEAIKKELREKYPDAEITITDKDGNTIVIKLKDLKSAGGS [r8_236_TrROS_Hall] ?
Reply | 2.52

Ask | Name the recorded folding stability dG unfold for GMTVTHTAEAGGRPLTITVTRSPDGWEVTVTDPDGTPIFSKTIPSDKNATLTLTDSAGNPLVTVNITLPPES [r1_34_JUSTAS] .
Reply | 3.8

Ask | // folding stability dG unfold lookup, key: SAGGSAGGSAMKFPKGAKIEIVVTEDKVYVRIKTPGGKEIEVEMTLEELKKLGFEVEIVEEESAGGSAGGSA [r18_125_TrROS_Hall]
Reply | 2.27

Ask | GET /values?readout=folding stability dG unfold&item= SAGGSAGGSMTITVTKVDFPPGLYEGLTIEELRKLLGDENLPIKETPVTVTVTPEKLAALLLSSAGGSAGGS [r12_178_JUSTAS]
Reply | 0.778

Ask | Reported folding stability dG unfold for SAGGSAGGSIKPGEEVTINFLVPPGNIPEFANELMKQDGIKDIEVKYQPFPNWYMVDITIRVKSAGGSAGGS [r12_993_TrROS] : what is it?
Reply | -0.0266

Ask | What does the record list as folding stability dG unfold for SAGGSAGGSAGMKVTIEENEETGKFTIKVKTEDGEEKTIEIPKENLEEILAKLPPNVEIISAGGSAGGSAGG [r11_569_TrROS_Hall] ?
Reply | 1.92

Ask | Which measured folding stability dG unfold value corresponds to SAGGSAGGSAGLEIKIPNGNKTITVEKTKDYYKATIYFPETGEKVEFTFPPNVSLSLLDISAGGSAGGSAGG [r11_772_TrMRF] ?
Reply | 1.12

Ask | I'd like to know its folding stability dG unfold. The sequence in question is SPFIMIRIDIERKNGKEVEMMFPVPANNIKNNLRDHLGPGYKVKITDIEPIDPEQFPPGQMIKIRYRVKPSA [r9_803_TrROS]
Reply | 1.71

Ask | Any idea what its folding stability dG unfold is? The sequence is SAGGMELPPEVKTIAEKLEAEGYDVLAVPVGDSYVIAVDGKVAATPEEFEKLKKIPGVKKLITIDLPSAGGS [r16_275_TrMRF]
Reply | 0.583

Ask | State the recorded folding stability dG unfold for this entry: SDKIKNMTIEEILKKLPKGVKVGEKVEIEIDGKKITITKVEVVKDKNGKEIKRIYIEVEIDGEKIIIEIESA [r9_279_TrROS_Hall]
Reply | 2.36

Ask | Item under review: SAGFLGFGIEPHPNGWFKIEIMVMFPWPGGWFMFSIDITIPIVPIEPPPPPPVVEPKKENGKPKEWKYDSAG [r5_169_TrROS] . Reported folding stability dG unfold?
Reply | 3.38

Ask | What value of folding stability dG unfold has been reported for the following sequence? SAGMDVKELAKEAMEKYPPGDKEIEFEIPVGPRPFKVKIDYEPDPENGKPRPKITIENPDNGKKTEFTFSAG [r5_236_TrROS]
Reply | 0.61

Ask | What value of folding stability dG unfold has been reported for the following sequence? SAMKPGEKVKIKIITFEKKKDPKTGEEKIEMKEIEIEATITEVEEKDGKVTVKIKIENLPPGAMIIIEKSAG [r14_412_TrROS_Hall]
Reply | 3.64

---

Please provide measured folding stability dG unfold for the entries that follow.
Assay: folding stability dG unfold from chymotrypsin proteolysis; higher = more stable
Write down the numeric answer in kcal/mol and omit the unit.

Ask | Give its folding stability dG unfold value. Item: SAGGSAGGSAMTPEEIKKLFPNAKMKPFKGNGKTVIVIELPSGEKIEIVFDDGKPRIIVYKGSAGGSAGGSA [r18_13_TrMRF]
Reply | 1.3

Ask | For the sequence SAGGSAGGSAGGVSPEANIKEVSKDPKTGLTTSLAKDPNSDNEITITKDSSGNSSINISSAGGSAGGSAGGS [r10_450_JUSTAS] , what folding stability dG unfold is on record?
Reply | 1.08

Ask | Would you kindly share the measured folding stability dG unfold for SAMKTVTIKVTVEVTKNENGEEVKTVTVTLTLPEEEMTEEQLKELAKELADKLAEENNLTVKITKIEVTSAG [r14_190_TrROS_Hall] ?
Reply | 2.93

Ask | Field request: folding stability dG unfold | item: SAGGEVKTLEVTLEVNGKKVRVRVELTKDGTLKVTVTFEDGTKVELEIKLPKVKVKEVKFYSLEELKSAGGS [r16_48_TrROS_Hall]
Reply | 1.78

Ask | Reported folding stability dG unfold, sequence SAGKKVKINIKLPEGAKVTKIEFDKKTKTIKITIYDKNGKKVLEMTFVYKDKNGKYKIVKKITVYLKKPSAG [r5_434_TrROS_Hall] : ____
Reply | 4.19

Ask | What value of folding stability dG unfold has been reported for the following sequence? SAGGSAGGSAGGKTLSKEEALKKAKELAEKGEKVKIEVKNKKTKKTETIEITKEELEKLSAGGSAGGSAGGS [r10_779_TrROS_Hall]
Reply | 0.47

Ask | Consider the sequence SAGGSAGGSAGMRLVTITLTTEKPIFDENGNPIGTTTRTVVLEREVPEPEVPEVPLYQALSAGGSAGGSAGG [r11_131_JUSTAS] and give its measured folding stability dG unfold.
Reply | 0.189
